target: Bcl-2 protein (Recombinant Human Bcl-2 Protein) (Homo sapiens, UniProt P10415); construct: purchased Novus Biologicals NBP2-34889; assay: AS-MS evaluation of binding of the Example 4 mixture library (1200 compounds/well) to Bcl-2, ASMS ratio (%); conditions: replicate n = 1; mixture library; value belongs to the MS peak assigned to the compound
Sequence (P10415 whole entry): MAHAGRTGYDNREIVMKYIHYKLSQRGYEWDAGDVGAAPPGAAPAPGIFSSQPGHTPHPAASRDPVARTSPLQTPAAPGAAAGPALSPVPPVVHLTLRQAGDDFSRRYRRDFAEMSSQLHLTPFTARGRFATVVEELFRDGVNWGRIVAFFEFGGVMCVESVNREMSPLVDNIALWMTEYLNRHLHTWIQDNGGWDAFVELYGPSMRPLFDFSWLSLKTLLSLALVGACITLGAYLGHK
Would you kindly list ASMS ratio (%) n = 1 for each of these molecules?
Reply with just the number (in %).

Request: Form field - read-out: ASMS ratio (%) n = 1; system: Bcl-2 protein (Recombinant Human Bcl-2 Protein) (Homo sapiens, UniProt P10415); submitted item: CCOc1cncc(-c2ccc(CN3CCN(c4ccc(C(=O)NS(C)(=O)=O)nn4)CC3)c(OC)c2)c1
Response: 0.0

Request: Form field - read-out: ASMS ratio (%) n = 1; system: Bcl-2 protein (Recombinant Human Bcl-2 Protein) (Homo sapiens, UniProt P10415); submitted item: CCOc1cccc(-c2ccc(CN3CCN(c4ccc(C(=O)NS(=O)(=O)C(C)(C)C)nn4)CC3)cc2C)c1
Response: 0.0

Request: Form field - read-out: ASMS ratio (%) n = 1; system: Bcl-2 protein (Recombinant Human Bcl-2 Protein) (Homo sapiens, UniProt P10415); submitted item: CCOc1cccc(-c2ccc(CN3CCN(c4ccc(C(=O)NS(C)(=O)=O)cc4)CC3)cc2F)c1
Response: 0.0

Request: Form field - read-out: ASMS ratio (%) n = 1; system: Bcl-2 protein (Recombinant Human Bcl-2 Protein) (Homo sapiens, UniProt P10415); submitted item: CCOc1cccc(-c2cc(CN3CCN(c4ccc(C(=O)NS(=O)(=O)C(C)(C)C)cc4)CC3)cc(OC(F)(F)F)c2)c1
Response: 0.0

Request: Form field - read-out: ASMS ratio (%) n = 1; system: Bcl-2 protein (Recombinant Human Bcl-2 Protein) (Homo sapiens, UniProt P10415); submitted item: CCOc1cccc(C#Cc2ccccc2C(=O)N2CCN(c3ccc(C(=O)NS(=O)(=O)C(C)(C)C)nn3)CC2)c1
Response: 0.0

Request: Form field - read-out: ASMS ratio (%) n = 1; system: Bcl-2 protein (Recombinant Human Bcl-2 Protein) (Homo sapiens, UniProt P10415); submitted item: CCOc1cncc(-c2cc(CN3CCN(c4ccc(C(=O)NS(C)(=O)=O)cc4)CC3)cc(OCC)c2)c1
Response: 0.0

Request: Form field - read-out: ASMS ratio (%) n = 1; system: Bcl-2 protein (Recombinant Human Bcl-2 Protein) (Homo sapiens, UniProt P10415); submitted item: CCOc1cccc(C#Cc2cncc(C(=O)N3CCN(c4ccc(C(=O)NS(=O)(=O)C(C)(C)C)cc4)CC3)c2)c1
Response: 0.0

Request: Form field - read-out: ASMS ratio (%) n = 1; system: Bcl-2 protein (Recombinant Human Bcl-2 Protein) (Homo sapiens, UniProt P10415); submitted item: CCOc1cncc(-c2cc(C(=O)N3CCN(c4ccc(C(=O)NS(=O)(=O)C(C)(C)C)cc4)CC3)cc(C(C)(C)C)c2)c1
Response: 0.0

Request: Form field - read-out: ASMS ratio (%) n = 1; system: Bcl-2 protein (Recombinant Human Bcl-2 Protein) (Homo sapiens, UniProt P10415); submitted item: CCOc1cncc(C#Cc2ccccc2C(=O)N2CCN(c3ccc(C(=O)NS(=O)(=O)C(C)(C)C)nn3)CC2)c1
Response: 0.0

Request: Form field - read-out: ASMS ratio (%) n = 1; system: Bcl-2 protein (Recombinant Human Bcl-2 Protein) (Homo sapiens, UniProt P10415); submitted item: CCOc1cncc(C#Cc2ccccc2C(=O)N2CCN(c3ccc(C(=O)NS(=O)(=O)C(C)(C)C)cc3)CC2)c1
Response: 0.0

Request: Form field - read-out: ASMS ratio (%) n = 1; system: Bcl-2 protein (Recombinant Human Bcl-2 Protein) (Homo sapiens, UniProt P10415); submitted item: CCOc1cncc(-c2csc(CN3CCN(c4ccc(C(=O)NS(=O)(=O)C(C)(C)C)cc4)CC3)c2)c1
Response: 0.0

Request: Form field - read-out: ASMS ratio (%) n = 1; system: Bcl-2 protein (Recombinant Human Bcl-2 Protein) (Homo sapiens, UniProt P10415); submitted item: CCOc1cncc(C#Cc2cncc(C(=O)N3CCN(c4ccc(C(=O)NS(=O)(=O)C(C)(C)C)cc4)CC3)c2)c1
Response: 0.0

Request: Form field - read-out: ASMS ratio (%) n = 1; system: Bcl-2 protein (Recombinant Human Bcl-2 Protein) (Homo sapiens, UniProt P10415); submitted item: CCOc1cncc(-c2ccc(CN3CCN(c4ccc(C(=O)NS(=O)(=O)C(C)(C)C)cc4)CC3)c(CC)c2)c1
Response: 0.0
